test system: HCT116 cells; test: Inhibition of proliferation of the human colon tumor line HCT116 ([14C]-thymidine incorporation); type: cell-based; conditions: Homo sapiens, HCT-116, 48 h, 48 hours at 37° C., read-out: Inhibition of HCT116 proliferation IC 50 (μm)
Observation type: IC50 (µM)

Chemical smiles: Cc1cc(C(=O)N2CCN(c3ccccc3)CC2)n(-c2cccc(Cl)c2)n1
System: HCT116 cells
Measured value: 0.775

Chemical smiles: Cc1cc(C(=O)N2CCN(c3ccccc3)CC2)n(-c2cccc(F)c2)n1
System: HCT116 cells
Measured value: 0.014

Chemical smiles: COc1cccc(N2CCN(C(=O)c3cc(C)nn3-c3cccc(F)c3)CC2)c1
System: HCT116 cells
Measured value: 0.0036
